Taken from patent US10174013B2.

test system: HEL92 cells; test: Growth inhibition, MTS assay, HEL92; type: cell-based, Human; details: 72 hours, MTS cell viability; read-out: HEL92 ED50
Classes (IC50): one (below 5 µM), two (5 µM to below 6 µM), three (6 µM or more)

• Cl.N[C@H]1CCN(c2nc3c([N+](=O)[O-])c(Br)c(Br)cc3n2CC2CC2)C1 [Example 1CK] = three
• O=[N+]([O-])c1c(Br)c(Br)cc2c1nc(N1CCNCC1)n2C1CCC1 [Example 1DG] = one

Which of the defined bands does the recorded IC50 of CC(C)n1c(N2CCNC[C@H]2C)nc2c([N+](=O)[O-])c(Br)c(Br)cc21 [Example 1AO] sit within?
one

And for CC(C)n1c(NC2CNC2)nc2c([N+](=O)[O-])c(Br)c(Br)cc21 [Example 1CR] ?
three

Try CC(C)n1c(N2CCNC[C@H]2C)nc2c([N+](=O)[O-])c(Br)c(Br)cc21 [Example 1AX] next.
one

CCn1c(N[C@H]2CCCNC2)nc2c([N+](=O)[O-])c(Br)c(Br)cc21 [Example 1AA] , same question.
one

Do the same for CC(C)n1c(N[C@@H]2CCCNC2)nc2c([N+](=O)[O-])c(Br)c(Br)cc21 [Example 1CA] please
three
